# residual activity per record follows
target: Solute carrier organic anion transporter family member 1B3 (Homo sapiens, UniProt Q9NPD5); settings: chinese hamster, cho, 10 µM
Sequence (Q9NPD5 whole entry): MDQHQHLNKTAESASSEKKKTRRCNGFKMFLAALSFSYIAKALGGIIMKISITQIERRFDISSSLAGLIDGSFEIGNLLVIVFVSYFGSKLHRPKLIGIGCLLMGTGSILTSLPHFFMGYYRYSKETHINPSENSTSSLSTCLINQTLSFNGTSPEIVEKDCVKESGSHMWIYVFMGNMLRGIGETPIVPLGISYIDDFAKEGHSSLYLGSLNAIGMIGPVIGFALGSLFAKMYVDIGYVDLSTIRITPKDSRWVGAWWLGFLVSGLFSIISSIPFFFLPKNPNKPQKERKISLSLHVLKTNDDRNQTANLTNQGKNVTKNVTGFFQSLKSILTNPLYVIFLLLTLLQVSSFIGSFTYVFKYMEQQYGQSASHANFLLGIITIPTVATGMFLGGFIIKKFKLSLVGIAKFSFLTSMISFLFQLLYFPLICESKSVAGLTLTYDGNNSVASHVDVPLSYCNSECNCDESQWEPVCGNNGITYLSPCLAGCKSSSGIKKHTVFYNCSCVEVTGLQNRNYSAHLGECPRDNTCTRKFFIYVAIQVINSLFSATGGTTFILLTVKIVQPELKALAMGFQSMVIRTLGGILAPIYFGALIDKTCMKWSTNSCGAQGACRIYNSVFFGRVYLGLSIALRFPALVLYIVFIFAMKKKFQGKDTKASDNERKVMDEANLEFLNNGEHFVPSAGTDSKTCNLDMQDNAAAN
Write the answer as a number in %, unit excluded.

OC[C@@H]1CCCN2CCCC[C@H]12: 90.27
CC(C(=O)O)c1ccc(-c2ccccc2)c(F)c1 (configuration not stated): 98.28
CC(=O)OC(C)(C)[C@@H]1Cc2cc3ccc(=O)oc3cc2O1 [MARMESIN ACETATE]: 88.18
C/C=C1\[C@H]2C=C(C)C[C@]1(N)c1ccc(=O)[nH]c1C2: 101.3
C[C@H]1[C@H](C)CC[C@@]23CC[C@]4(C)[C@@](C=C[C@@H]5[C@@]6(C)CC[C@H](O)C(C)(C)[C@@H]6CC[C@]54C)(OC2=O)[C@H]13: 98.51

Request the reported residual activity associated with O=c1oc2c(O)c(O)cc3c(=O)oc4c(O)c(O)cc1c4c23 65.47

Which measured residual activity value corresponds to CC(=O)O[C@@H]1CC[C@@]2(C)[C@@H](CC[C@@H]3[C@@H]2CC[C@]2(C)C(=O)CC[C@@H]32)C1 [ANDROSTERONE ACETATE] ? 100.8
